Data credit: patent US9657057B2

assay: Solubility pH 7; type: physicochemical; conditions: pH 7, aqueous buffer
Quantity: log10 solubility (log10 of the value in µg/mL)

Structure smiles	Quantity	Numeric value
COC(=O)N[C@H](C)C(=O)N[C@@H](Cc1ccc(OC)cc1)C(=O)N[C@@H](Cc1ccccc1)C(=O)[C@@]1(C)CO1	log10 solubility	2.48
COc1ccc(C[C@H](NC(=O)[C@H](C)NC(C)=O)C(=O)N[C@@H](Cc2ccccc2)C(=O)[C@@]2(C)CO2)cc1	log10 solubility	2.87
COCOCCC(=O)N[C@@H](C)C(=O)N[C@@H](Cc1ccc(OC)cc1)C(=O)N[C@@H](Cc1ccccc1)C(=O)[C@@]1(C)CO1	log10 solubility	2.86
C[C@H](NC(=O)c1cccc(=O)[nH]1)C(=O)N[C@@H](CC1CCCC1)C(=O)[C@@]1(C)CO1	log10 solubility	2.71
COc1ccc(C[C@H](NC(=O)[C@@H](CO)NC(=O)c2cc(C)no2)C(=O)N[C@@H](CC2CCCC2)C(=O)[C@@]2(C)CO2)cc1	log10 solubility	2.46
CC1=C(C(=O)N[C@H](C)C(=O)N[C@@H](Cc2c[nH]c3ccccc23)C(=O)N[C@@H](CC2CCCC2)C(=O)[C@@]2(C)CO2)Cc2ccccc21	log10 solubility	-0.52
